biological target: Mushroom tyrosinase (Agaricus bisporus) (UniProt O42713+Q00024+C7FF04+C7FF05); assay: Inhibition of mushroom tyrosinase using L-DOPA as substrate at 0.5 uM preincubated for 20 mins followed by substrate addition and measured after 10 mins relative to control; conditions: time 30.0 min
Kindly return Fulfilled if reported inhibition is no lower than 20%; return Not fulfilled if it is lower.

[
  {
    "structure": "Cc1ccc(-n2c(SCc3cc(=O)c(O)co3)nc3ccccc3c2=O)cc1",
    "class_label": "Not fulfilled"
  },
  {
    "structure": "O=c1cc(CSc2nc3ccccc3c(=O)n2Cc2ccc(F)cc2)occ1O",
    "class_label": "Fulfilled"
  },
  {
    "structure": "O=c1cc(CSc2nc3ccccc3c(=O)n2-c2ccc(Cl)cc2)occ1O",
    "class_label": "Fulfilled"
  },
  {
    "structure": "CCCn1c(SCc2cc(=O)c(O)co2)nc2ccccc2c1=O",
    "class_label": "Fulfilled"
  }
]

Does the reported inhibition for O=c1cc(CSc2nc3ccccc3c(=O)n2C2CC2)occ1O fall at or above the 20% mark?
Fulfilled

Does the reported inhibition for O=c1cc(CSc2nc3ccccc3c(=O)n2Cc2ccncc2)occ1O fall at or above the 20% mark?
Not fulfilled

----------
Listed here: items and their measured IC50.
target: Mushroom tyrosinase (Agaricus bisporus, UniProt O42713+Q00024+C7FF04+C7FF05); test: Inhibition of mushroom tyrosinase using L-DOPA as substrate preincubated for 20 mins followed by substrate addition and measured after 10 mins
The figure you give is taken to be in nM; do not add the unit.

[
  {
    "structure": "O=c1cc(CSc2nc3ccccc3c(=O)n2-c2ccc(Br)cc2)occ1O",
    "value_observed": 1480
  },
  {
    "structure": "O=c1cc(CSc2nc3ccccc3c(=O)n2C2CC2)occ1O",
    "value_observed": 2100
  },
  {
    "structure": "O=c1cc(CSc2nc3ccccc3c(=O)n2Cc2ccccc2)occ1O",
    "value_observed": 1420
  }
]

Now turn to the next compound.
# query: IC50 of entry COc1ccc(-n2c(SCc3cc(=O)c(O)co3)nc3ccccc3c2=O)cc1
2400

----------
experiment: Antioxidant activity assessed as inhibition of DPPH radical activity at 100 uM incubated for 20 mins by spectrophotometric method relative to control; format: functional
Listed here: items and their measured inhibition.
The figure you give is taken to be in %; do not add the unit.

Before answering, review these 3 worked examples.
[
  {
    "structure": "O=c1cc(CSc2nc3ccccc3c(=O)n2-c2ccc(Br)cc2)occ1O",
    "inhibition, %": 33.3
  },
  {
    "structure": "CCCn1c(SCc2cc(=O)c(O)co2)nc2ccccc2c1=O",
    "inhibition, %": 22.6
  },
  {
    "structure": "O=c1c(O)c(-c2ccc(O)c(O)c2)oc2cc(O)cc(O)c12",
    "inhibition, %": 4.62
  }
]

# query: inhibition of entry O=c1cc(CSc2nc3ccccc3c(=O)n2Cc2ccncc2)occ1O
39

# query: inhibition of entry O=c1cc(CSc2nc3ccccc3c(=O)n2C2CC2)occ1O
24.5

# query: inhibition of entry COc1ccc(-n2c(SCc3cc(=O)c(O)co3)nc3ccccc3c2=O)cc1
27.1

----------
Listed here: items and their measured inhibition.
biological target: Mushroom tyrosinase (Agaricus bisporus) (UniProt O42713+Q00024+C7FF04+C7FF05); experiment: Inhibition of mushroom tyrosinase using L-DOPA as substrate at 10 uM preincubated for 20 mins followed by substrate addition and measured after 10 mins relative to control; settings: time 30.0 min
The figure you give is taken to be in %; do not add the unit.

[
  {
    "structure": "O=c1cc(CSc2nc3ccccc3c(=O)n2Cc2ccccc2)occ1O",
    "study_system": "Mushroom tyrosinase (Agaricus bisporus) (UniProt O42713+Q00024+C7FF04+C7FF05)",
    "unit_symbol": "%",
    "inhibition": 94.1
  },
  {
    "structure": "C=CCn1c(SCc2cc(=O)c(O)co2)nc2ccccc2c1=O",
    "study_system": "Mushroom tyrosinase (Agaricus bisporus) (UniProt O42713+Q00024+C7FF04+C7FF05)",
    "unit_symbol": "%",
    "inhibition": 92
  },
  {
    "structure": "O=c1cc(CSc2nc3ccccc3c(=O)n2Cc2ccncc2)occ1O",
    "study_system": "Mushroom tyrosinase (Agaricus bisporus) (UniProt O42713+Q00024+C7FF04+C7FF05)",
    "unit_symbol": "%",
    "inhibition": 88.5
  },
  {
    "structure": "O=c1cc(CSc2nc3ccccc3c(=O)n2-c2ccccc2)occ1O",
    "study_system": "Mushroom tyrosinase (Agaricus bisporus) (UniProt O42713+Q00024+C7FF04+C7FF05)",
    "unit_symbol": "%",
    "inhibition": 91.7
  }
]

# query: inhibition of entry O=c1cc(CSc2nc3ccccc3c(=O)n2Cc2ccccn2)occ1O
90.3

# query: inhibition of entry CCCn1c(SCc2cc(=O)c(O)co2)nc2ccccc2c1=O
90.5

----------
assay: Antioxidant activity assessed as inhibition of DPPH radical activity at 100 uM incubated for 20 mins by spectrophotometric method relative to control; type: functional
Kindly return TRUE if reported inhibition is no lower than 30%; return FALSE if it is lower.

Example entries begin here.
[
  {
    "structure": "COc1ccc(-n2c(SCc3cc(=O)c(O)co3)nc3ccccc3c2=O)cc1OC",
    "class_label": "FALSE"
  },
  {
    "structure": "O=c1cc(CSc2nc3ccccc3c(=O)n2-c2ccc(Cl)cc2)occ1O",
    "class_label": "TRUE"
  },
  {
    "structure": "O=c1cc(CSc2nc3ccccc3c(=O)n2-c2ccccc2)occ1O",
    "class_label": "TRUE"
  },
  {
    "structure": "O=c1cc(CSc2nc3ccccc3c(=O)n2-c2ccccn2)occ1O",
    "class_label": "TRUE"
  },
  {
    "structure": "Cc1ccc(-n2c(SCc3cc(=O)c(O)co3)nc3ccccc3c2=O)cc1",
    "class_label": "TRUE"
  },
  {
    "structure": "O=c1cc(CSc2nc3ccccc3c(=O)n2Cc2ccccc2)occ1O",
    "class_label": "FALSE"
  },
  {
    "structure": "CC(C)n1c(SCc2cc(=O)c(O)co2)nc2ccccc2c1=O",
    "class_label": "TRUE"
  },
  {
    "structure": "O=c1cc(CSc2nc3ccccc3c(=O)n2Cc2ccccn2)occ1O",
    "class_label": "TRUE"
  }
]

Does the reported inhibition for O=c1cc(CSc2nc3ccccc3c(=O)n2Cc2ccc(F)cc2)occ1O fall at or above the 30% mark?
TRUE

----------
molecular target: Mushroom tyrosinase (Agaricus bisporus) (UniProt O42713+Q00024+C7FF04+C7FF05); experiment: Inhibition of mushroom tyrosinase using L-DOPA as substrate at 0.5 uM preincubated for 20 mins followed by substrate addition and measured after 10 mins relative to control; conditions: time 30.0 min
readout_kind: inhibition (%)
The figure you give is taken to be in %; do not add the unit.

[
  {
    "structure": "O=c1cc(CSc2nc3ccccc3c(=O)n2Cc2ccccc2)occ1O",
    "unit_symbol": "%",
    "inhibition": 42.5
  },
  {
    "structure": "O=c1cc(CSc2nc3ccccc3c(=O)n2-c2ccccn2)occ1O",
    "unit_symbol": "%",
    "inhibition": 50.5
  },
  {
    "structure": "COc1ccc(-n2c(SCc3cc(=O)c(O)co3)nc3ccccc3c2=O)cc1OC",
    "unit_symbol": "%",
    "inhibition": 40.1
  }
]

# query: inhibition of entry O=c1cc(CSc2nc3ccccc3c(=O)n2-c2ccc(Br)cc2)occ1O
40.1

----------
Listed here: items and their measured IC50.
biological target: Mushroom tyrosinase (Agaricus bisporus, UniProt O42713+Q00024+C7FF04+C7FF05); assay: Inhibition of mushroom tyrosinase using L-DOPA as substrate preincubated for 20 mins followed by substrate addition and measured after 10 mins
The figure you give is taken to be in µM; do not add the unit.

Before answering, review these 10 worked examples.
[
  {
    "structure": "O=c1cc(CSc2nc3ccccc3c(=O)n2-c2ccccn2)occ1O",
    "unit_symbol": "µM",
    "IC50": 0.5
  },
  {
    "structure": "CCCn1c(SCc2cc(=O)c(O)co2)nc2ccccc2c1=O",
    "unit_symbol": "µM",
    "IC50": 2.31
  },
  {
    "structure": "CC(C)n1c(SCc2cc(=O)c(O)co2)nc2ccccc2c1=O",
    "unit_symbol": "µM",
    "IC50": 1.44
  },
  {
    "structure": "O=c1cc(CSc2nc3ccccc3c(=O)n2Cc2ccc(F)cc2)occ1O",
    "unit_symbol": "µM",
    "IC50": 1.56
  },
  {
    "structure": "C=CCn1c(SCc2cc(=O)c(O)co2)nc2ccccc2c1=O",
    "unit_symbol": "µM",
    "IC50": 1.56
  },
  {
    "structure": "O=c1cc(CSc2nc3ccccc3c(=O)n2Cc2ccccn2)occ1O",
    "unit_symbol": "µM",
    "IC50": 0.46
  },
  {
    "structure": "Cc1ccc(-n2c(SCc3cc(=O)c(O)co3)nc3ccccc3c2=O)cc1",
    "unit_symbol": "µM",
    "IC50": 5.32
  },
  {
    "structure": "COc1ccc(-n2c(SCc3cc(=O)c(O)co3)nc3ccccc3c2=O)cc1OC",
    "unit_symbol": "µM",
    "IC50": 2.12
  },
  {
    "structure": "O=c1cc(CSc2nc3ccccc3c(=O)n2-c2ccccc2)occ1O",
    "unit_symbol": "µM",
    "IC50": 1.88
  },
  {
    "structure": "O=c1cc(CSc2nc3ccccc3c(=O)n2Cc2ccncc2)occ1O",
    "unit_symbol": "µM",
    "IC50": 2.2
  }
]

# query: IC50 of entry O=c1cc(CSc2nc3ccccc3c(=O)n2-c2ccc(Cl)cc2)occ1O
0.5

Origin of measurements: ChEMBL document CHEMBL4706702
